- ASSAY SYSTEM: pneumolysin (Streptococcus pneumoniae serotype 2, UniProt Q04IN8)
- Sequence (Q04IN8 whole entry): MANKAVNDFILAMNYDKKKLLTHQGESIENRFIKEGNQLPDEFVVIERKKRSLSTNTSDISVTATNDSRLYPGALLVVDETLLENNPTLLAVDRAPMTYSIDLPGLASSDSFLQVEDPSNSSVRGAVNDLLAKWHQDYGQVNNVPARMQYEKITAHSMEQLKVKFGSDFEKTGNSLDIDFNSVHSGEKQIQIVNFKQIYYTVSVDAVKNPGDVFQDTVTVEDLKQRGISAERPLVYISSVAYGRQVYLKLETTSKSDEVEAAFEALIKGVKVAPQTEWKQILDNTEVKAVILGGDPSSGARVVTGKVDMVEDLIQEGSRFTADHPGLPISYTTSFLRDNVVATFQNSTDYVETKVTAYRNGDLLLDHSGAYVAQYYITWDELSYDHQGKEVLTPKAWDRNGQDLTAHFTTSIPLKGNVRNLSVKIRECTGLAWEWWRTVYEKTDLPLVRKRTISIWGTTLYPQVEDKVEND
- MEASUREMENT PROTOCOL: Inhibition of the haemolytic activity of pneumolysin (sheep erythrocytes)
- Type: cell-based
- TEST CONTEXT: inhibition of pneumolysin-induced haemolysis of sheep erythrocytes; class symbols of Table 1; read-out: IC50
Answer each item with its documented IC50.

According to the records, this molecule CCOC(=O)c1c(OP(=O)(OCC)OCC)c(OP(=O)(OCC)OCC)c(C(=O)N(C)C)n1-c1ccc(OC)cc1 displays IC50 of > 60 µM

According to the records, this molecule CCOC(=O)c1c(O)c(OP(=O)(OCC)OCC)c(C(=O)N(C)C)n1-c1ccc(OC)cc1 displays IC50 of > 60 µM

According to the records, this molecule CCOC(=O)c1c(O)c(OC(=O)N2CCC(N3CCCCC3)CC2)c(C(=O)N(C)C)n1-c1ccc(OC)cc1 displays IC50 of 20 to 60 µM

According to the records, this molecule CCOC(=O)c1c(OC(=O)N(C)C)c(OC(=O)N(C)C)c(C(=O)N(C)C)n1-c1ccc(OC)cc1 displays IC50 of > 60 µM

###

- MEASUREMENT PROTOCOL: Conversion of prodrug derivatives to active inhibitors in mouse plasma
- Format: in vitro ADME
- TEST CONTEXT: 37° C., 10 μM start, prodrug remaining, 15 min
Entries whose [ ] (μM) t15 min. Prodrug is below 8 µM take Satisfied; entries at or above 8 µM take Not satisfied.

Decide: [ ] (μM) t15 min. Prodrug of CCOC(=O)c1c(OC(=O)N2CCC(N3CCCCC3)CC2)c(OC(=O)N2CCC(N3CCCCC3)CC2)c(C(=O)N(C)C)n1-c1ccc(OC)cc1 strictly below 8 µM?
Satisfied

Decide: [ ] (μM) t15 min. Prodrug of CCOC(=O)c1c(OCOP(=O)(O)O)c(O)c(C(=O)N(C)C)n1-c1ccc(OC)cc1 strictly below 8 µM?
Satisfied

Decide: [ ] (μM) t15 min. Prodrug of CCOC(=O)c1c(OC(=O)C(C)(C)COCCCOP(=O)(O)O)c(OC(=O)C(C)(C)COCCCOP(=O)(O)O)c(C(=O)N(C)C)n1-c1ccc(OC)cc1 strictly below 8 µM?
Satisfied

Decide: [ ] (μM) t15 min. Prodrug of CCOC(=O)c1c(OC(=O)N(C)C)c(OC(=O)N(C)C)c(C(=O)N(C)C)n1-c1ccc(OC)cc1 strictly below 8 µM?
Not satisfied

Decide: [ ] (μM) t15 min. Prodrug of CCOC(=O)c1c(O)c(OC(=O)N2CCC(N3CCCCC3)CC2)c(C(=O)N(C)C)n1-c1ccc(OC)cc1 strictly below 8 µM?
Not satisfied

###

Answer each item with its documented pIC50.
pIC50: −log10 of the molar value.

Entry CCOC(=O)c1c(O)c(O)c(C(=O)N(C)C)n1-c1ccc(OC)cc1 [UL1-012] : pIC50 on Anthrolysin O (ALO) (Bacillus anthracis, UniProt A0A6L7HHW7) = > 5.00

Entry CCOC(=O)c1c(O)c(O)c(C(=O)OCC)n1-c1ccc(OC)cc1 [UL2-001] : pIC50 on Anthrolysin O (ALO) (Bacillus anthracis, UniProt A0A6L7HHW7) = > 5.00

###

- ASSAY SYSTEM: pneumolysin (Streptococcus pneumoniae serotype 2, UniProt Q04IN8)
- MEASUREMENT PROTOCOL: Inhibition of the haemolytic activity of pneumolysin (sheep erythrocytes)
- Type: cell-based
- TEST CONTEXT: inhibition of pneumolysin-induced haemolysis of sheep erythrocytes; class symbols of Table 1
pIC50: −log10 of the molar value.
OBSERVED PROPERTY: pIC50

According to the records, this compound CCOC(=O)c1c(O)c(OCOP(=O)(O)O)c(C(=O)N(C)C)n1-c1ccc(OC)cc1 displays pIC50 of < 4.22

According to the records, this compound CCOC(=O)c1c(OC(=O)C(C)(C)C)c(OC(=O)C(C)(C)C)c(C(=O)N(C)C)n1-c1ccc(OC)cc1 displays pIC50 of < 4.22

According to the records, this compound CCOC(=O)c1c(OC(=O)C(C)C)c(OC(=O)C(C)C)c(C(=O)N(C)C)n1-c1ccc(OCCOCCOCCOC)cc1 displays pIC50 of < 4.22
